# procedureSummary: qHTS assay for small molecule disruptors of the mitochondrial membrane potential (AID 720635)
# conditionLabel: HepG2 mitochondrial membrane potential, Mito-MPS dye ratio; series mostly up to 83.2 µM
Records with an inconclusive call do not appear. Activity calls are given as the source filed them. Calls come from the whole dose curve; as a rule, active = well fitted inhibition curve with a large enough effect in the signal ratio in the repeat runs; inconclusive = weak or mixed curves, or effect the other way; inactive = flat fitted curve, though single readings scatter; the % refers to the signal ratio.
Classes used: 1 = active, -1 = inactive

CC(=O)Oc1cccc(C)c1 | -1
CC12CCC(C(=O)C1=O)C2(C)C (configuration not stated) | -1
COc1cccc(OC)c1C(=O)N[C@@H]1C(=O)N2[C@@H]1SC(C)(C)[C@@H]2C(=O)O | -1
COc1cc2c(cc1OC)-c1cc3ccc(OC)c(OC)c3c[n+]1CC2 | 1
CNC(=O)Nc1ccc(Cl)c(Cl)c1 | 1
CC1(C)OC[C@@H](COC(=O)CCc2ccc(OC[C@@H](O)CNCCNC(=O)N3CCOCC3)cc2)O1 | -1
CC(=O)c1cnccn1 | -1

----------
# procedureSummary: qHTS assay to test for compound auto fluorescence at 535 nm (green) in HEK293 cells (AID 720680); note: % is set by controls: 0 for no effect and ±100 for the full control effect
# conditionLabel: green autofluorescence 485/535 nm; series mostly up to 91.3 µM
Activity calls are given as the source filed them. The call rests on the fitted dose curve; in most records, active means well fitted curve in the direction sought with a large enough effect in the repeat runs; inconclusive means weak or mixed curves; inactive means flat fitted curve, though single readings scatter.
endpointLabel: fluorescence, % of fluorescein

CN1[C@@H]2CC[C@H]1CC(OC(=O)C(O)c1ccccc1)C2 (stereo not given in full) | inactive
C[C@H]1C[C@H]2[C@@H]3CCC4=CC(=O)C=C[C@]4(C)[C@H]3C(=O)C[C@]2(C)[C@@]1(O)C(=O)CO | inactive
Cc1nc2ccc(CN(C)c3ccc(C(=O)N[C@@H](CCC(=O)O)C(=O)O)s3)cc2c(=O)[nH]1 | inactive
CCOC(=O)COC(=O)c1ccccc1C(=O)OCC | inactive
CCN[C@H]1C[C@H](C)S(=O)(=O)c2sc(S(N)(=O)=O)cc21 | inactive

----------
# procedureSummary: qHTS assay to identify small molecule antagonists of the estrogen related receptor (ERR) signaling pathway from Tox21 library - cell viability counter screen (AID 1224834); note: % is set by controls: 0 for no effect and ±100 for the full control effect; nearly all actives have a fitted effect of over 30% in size
# conditionLabel: ERR reporter cells viability, CellTiter-Fluor, 17.5 h; series mostly up to 92.4 µM
Results filed as inconclusive are left out. Active and inactive are the calls of the source. Calls come from the whole dose curve; as a rule, active = well fitted cell-killing curve with a large enough effect in the repeat runs; inconclusive = weak or mixed curves; inactive = flat fitted curve, though single readings scatter.
endpointLabel: viability change, negative = cytotoxic

NCCCC[C@H](N[C@@H](CCc1ccccc1)C(=O)O)C(=O)N1CCC[C@H]1C(=O)O | inactive
N[C@H](C(=O)O)[C@@H](O)c1ccc(O)c(O)c1 | inactive
CCN1CCOCC1 | inactive
C[N+]12CCC(CC1)C(OC(=O)C(O)(c1ccccc1)c1ccccc1)C2 (centres undefined) | inactive
O=C(CO)[C@@H](O)[C@H](O)[C@@H](O)CO | inactive
CC(=O)c1ccccc1[N+](=O)[O-] | inactive
O=C(CO)[C@@H](O)[C@H](O)[C@H](O)CO | inactive
CCOC(=O)CCC(=O)OCC | inactive
CC(C)C[C@@H](N)C(=O)O | 1.15% [at 19 µM] (inactive)
CCC(=O)OCc1ccccc1 | inactive
Cc1onc(-c2c(Cl)cccc2Cl)c1C(=O)Cl | inactive
C=C(C)C(=O)OCCOCCOCCOCCOC(=O)C(=C)C | inactive
CCCCCCCCCCCCCCC(=O)O | inactive
CCCCCCCCN1CCCC1=O | inactive

----------
# procedureSummary: qHTS assay for identifying genotoxic compounds that show differential cytotoxicity against isogenic chicken DT40 cell lines with known DNA damage response pathways - wild type cell line (AID 743012); note: nearly all actives have a fitted effect of over 60% in size
# conditionLabel: DT40 wild type chicken cells viability, CellTiter-Glo, 40 h; series mostly up to 68.4 µM
Records with an inconclusive call do not appear. Calls of active or inactive are those of the source. Calls follow the shape of the dose curve; as a rule, active = well fitted cell-killing curve with a large enough effect in the repeat runs; inconclusive = weak or mixed curves, or effect the other way; inactive = no such curve, though single readings can be large or run the other way.
Classes used: True for active, False for inactive

NC(=O)N[C@@H](CCC(=O)O)C(=O)O | False
N[C@H](C(=O)O)[C@@H](O)c1ccc(O)c(O)c1 | True
CC1=NS(=O)(=O)c2cc(Cl)ccc2N1 | False
FB(F)F | False
C=CCCCCCCCCC(=O)OCC | False
CC1=CCC(O)(C(C)C)CC1 (stereo not given) | False
CC/C=C\CCOC(C)OCC (stereo not given) | False
Cc1ncc([C@@H](CCCCCCc2ccc3c(n2)NCCC3)CC(=O)O)cn1 | False
CC(=O)OCC(=O)[C@@]1(O)[C@H](C)C[C@H]2[C@@H]3CCC4=CC(=O)C=C[C@]4(C)[C@@]3(F)[C@@H](O)C[C@@]21C | False
CC(C)(C)OC(=O)c1cccc(N)c1 | False
